- experimental target: the molecule itself
- experiment description: SEC-SAXS; in-line SEC-SAXS on a Superdex 200 5/150 GL column; enzyme at 4.3-5.5 mg/mL; apo state, and after incubation with 5 mM CP or 10 mM ORN; self-association of the enzyme (trimer)
readout kind: binding result

INSERT INTO assay_data (protein, readout_kind, assay_value) VALUES
  ('Escherichia coli ornithine transcarbamoylase (OTC) variant S61A, His-tagged (enzyme, E. coli, Anabolic ornithine transcarbamoylase of E. coli, argI gene, 333-residue subunit; Made by site-directed mutagenesis of the ASKA pCA24N plasmid; 6x-His tag not cleaved; also called negative control; source: E. coli BL21 (DE3) Tuner, purified (HisTrap FF, Superdex 200 SEC)) SGFYHKHFLKLLDFTPAELNSLLQLAAKLKADKKSGKEEAKLTGKNIALIFEKDSTRTRCAFEVAAYDQGARVTYLGPSGSQIGHKESIKDTARVLGRMYDGIQYRGYGQEIVETLAEYASVPVWNGLTNEFHPTQLLADLLTMQEHLPGKAFNEMTLVYAGDARNNMGNSMLEAAALTGLDLRLVAPQACWPEAALVTECRALAQQNGGNITLTEDVAKGVEGADFIYTDVWVSMGEAKEKWAERIALLREYQVNSKMMQLTGNPEVKFLHCLPAFHDDQTTLGKKMAEEFGLHGGMEVTDEVFESAASIVFDQAENRMHTIKAVMVATLSK', 'binding result', 'binds'),
  ('Escherichia coli ornithine transcarbamoylase (OTC) variant Y229F, His-tagged (enzyme, E. coli, Anabolic ornithine transcarbamoylase of E. coli, argI gene, 333-residue subunit; Made by site-directed mutagenesis of the ASKA pCA24N plasmid; 6x-His tag not cleaved; source: E. coli BL21 (DE3) Tuner, purified (HisTrap FF, Superdex 200 SEC)) SGFYHKHFLKLLDFTPAELNSLLQLAAKLKADKKSGKEEAKLTGKNIALIFEKDSTRTRCSFEVAAYDQGARVTYLGPSGSQIGHKESIKDTARVLGRMYDGIQYRGYGQEIVETLAEYASVPVWNGLTNEFHPTQLLADLLTMQEHLPGKAFNEMTLVYAGDARNNMGNSMLEAAALTGLDLRLVAPQACWPEAALVTECRALAQQNGGNITLTEDVAKGVEGADFIFTDVWVSMGEAKEKWAERIALLREYQVNSKMMQLTGNPEVKFLHCLPAFHDDQTTLGKKMAEEFGLHGGMEVTDEVFESAASIVFDQAENRMHTIKAVMVATLSK', 'binding result', 'binds'),
  ('Escherichia coli ornithine transcarbamoylase (OTC) variant Y160F, His-tagged (enzyme, E. coli, Anabolic ornithine transcarbamoylase of E. coli, argI gene, 333-residue subunit; Made by site-directed mutagenesis of the ASKA pCA24N plasmid; 6x-His tag not cleaved; source: E. coli BL21 (DE3) Tuner, purified (HisTrap FF, Superdex 200 SEC)) SGFYHKHFLKLLDFTPAELNSLLQLAAKLKADKKSGKEEAKLTGKNIALIFEKDSTRTRCSFEVAAYDQGARVTYLGPSGSQIGHKESIKDTARVLGRMYDGIQYRGYGQEIVETLAEYASVPVWNGLTNEFHPTQLLADLLTMQEHLPGKAFNEMTLVFAGDARNNMGNSMLEAAALTGLDLRLVAPQACWPEAALVTECRALAQQNGGNITLTEDVAKGVEGADFIYTDVWVSMGEAKEKWAERIALLREYQVNSKMMQLTGNPEVKFLHCLPAFHDDQTTLGKKMAEEFGLHGGMEVTDEVFESAASIVFDQAENRMHTIKAVMVATLSK', 'binding result', 'binds');
